All values here come from paper PMC6323060.

# System: Staphylococcus aureus ATCC 25923
recordedMetric: MIC

1) CC1(C)S[C@@H]2[C@H](NC(=O)[C@H](N)c3ccccc3)C(=O)N2[C@H]1C(=O)O = ≤ 1 µg/mL
2) CNC(C)C1CCC(N)C(OC2C(N)CC(N)C(OC3OCC(C)(O)C(NC)C3O)C2O)O1 (stereo not shown) = ≤ 1 µg/mL
3) CC(C)(O/N=C(\C(=O)N[C@@H]1C(=O)N2C(C(=O)[O-])=C(C[n+]3ccccc3)CS[C@H]12)c1csc(N)n1)C(=O)O = ≤ 2 µg/mL

Sure, the documented MIC for "CN[C@H](CC(C)C)C(=O)N[C@H]1C(=O)N[C@@H](CC(N)=O)C(=O)N[C@H]2C(=O)N[C@H]3C(=O)N[C@H](C(=O)N[C@H](C(=O)O)c4cc(O)cc(O)c4-c4cc3ccc4O)[C@H](O)c3ccc(c(Cl)c3)Oc3cc2cc(c3O[C@@H]2O[C@H](CO)[C@@H](O)[C@H](O)[C@H]2O[C@H]2C[C@](C)(N)[C@H](O)[C@H](C)O2)Oc2ccc(cc2Cl)[C@H]1O" is ≤ 1 µg/mL
